meta.source: PubChem BioAssay (NCI)

This section presents compounds with their documented TGI values.
- System: MALME-3M melanoma
- Assay info: NCI tumour cell line growth inhibition, 48 h

Answered examples (2):
{"Smiles": "O=C(NNC(=O)c1ccco1)c1ccco1", "Target under test": "MALME-3M melanoma", "Test result": "> 100 µM"}
{"Smiles": "N#C/C(=C\\c1ccc(O)cc1)C(N)=O", "Target under test": "MALME-3M melanoma", "Test result": "> 100 µM"}

From here, focus on the item given below.
Query :: Return reported TGI; argument: `CC(C)(Oc1ccc(-c2cccc3ccccc23)cc1)C(=O)O`
Result :: > 100 µM

====

- Test system: HCT-116 colon
- Assay info: NCI tumour cell line growth inhibition, 48 h
This section presents molecules with their documented TGI values.

Query :: Return reported TGI; argument: `CNC(=S)N/N=C/C(C)=N/NC(=S)NC`
Result :: > 100 µM

====

This section presents molecules with their documented TGI values.
- Test system: SF-539 CNS
- Assay info: NCI tumour cell line growth inhibition, 48 h

Answered examples (2):
{"Molecule": "COc1cc2ncn(-c3cc(OCc4ccccc4C(F)(F)F)c(C(N)=O)s3)c2cc1OC", "Measurement name": "TGI", "Test result": "> 11.6 µM"}
{"Molecule": "COC(=O)C1=NC(=S)NC(c2ccccc2)C1c1nc2ccccc2o1 (stereo not drawn)", "Measurement name": "TGI", "Test result": "> 50 µM"}

From here, focus on the item given below.
Query :: Request body: readout TGI, system SF-539 CNS, query `C/C(=C\C(=O)Nc1ccc2n[nH]nc2c1)Nc1ccc2n[nH]nc2c1` . Return the value.
Result :: > 100 µM

====

- Tested on: MDA-MB-435
- Assay info: NCI tumour cell line growth inhibition, 48 h
Measurement name: TGI (nM)
Field: numeric (nM). Do not append units.

{"Smiles": "COc1ccc2nc3ccccc3c(NCCNCCO)c2c1", "Measurement name": "TGI", "Test result": 1830}

Query :: Request body: readout TGI, system MDA-MB-435, query `[Br][Pb]([c]1ccccc1)([c]1ccccc1)[c]1ccccc1` . Return the value.
Result :: 435

====

- Test system: DU-145 prostate
- Assay info: NCI tumour cell line growth inhibition, 48 h
Measurement name: TGI

{"Smiles": "Clc1ccc(C=Nc2ccc(-c3nc4ccccc4[nH]3)cc2)cc1", "TGI": "> 100 µM"}
{"Smiles": "O=[N+]([O-])c1ccccc1N=Nc1c(O)[nH]c2c(Cl)cccc12", "TGI": "> 79.2 µM"}
{"Smiles": "CSc1cc(Cl)c(C)cc1S(=O)(=O)NC(=O)NNc1ccc(C)cc1", "TGI": "> 100 µM"}

Query :: Return reported TGI; argument: `COc1cc(N=Nc2cc(Cc3ccc(N(C)C)cc3)c(N)cc2N(C)C)c2ncccc2c1`
Result :: 2.17 µM

====

- Tested on: SK-MEL-28 melanoma
- Assay info: NCI tumour cell line growth inhibition, 48 h
This section presents molecules with their documented TGI values.

{"Molecule": "Cc1cc(N(CCC#N)CCC#N)ccc1/C=C(\\NC(=O)/C=C/c1ccccc1)C(=O)Nc1ccccc1Cl", "Target under test": "SK-MEL-28 melanoma", "TGI": "> 100 µM"}
{"Molecule": "CN1CCCCC1CCN1c2ccccc2Sc2ccc(Br)cc21 (configuration not stated)", "Target under test": "SK-MEL-28 melanoma", "TGI": "4.37 µM"}
{"Molecule": "COC(=O)Cc1cc(=O)n2c3ccccc3n(C)c2c1C#N", "Target under test": "SK-MEL-28 melanoma", "TGI": "> 100 µM"}
{"Molecule": "CCOC(=O)C(C)c1nc2cc(F)c(F)cc2[nH]c1=O (configuration not stated)", "Target under test": "SK-MEL-28 melanoma", "TGI": "> 100 µM"}
{"Molecule": "Cc1ccc(NCCNCC(C)(C)O)c2c(=O)c3ccc(Cl)cc3sc12", "Target under test": "SK-MEL-28 melanoma", "TGI": "3.38 µM"}

From here, focus on the item given below.
Query :: Return reported TGI; argument: `CC(C)(C)OC(=O)Cn1ncn(NC(=O)Cc2ccccc2)c1=S`
Result :: > 10 µM

====

- Test system: SF-539 CNS
- Assay info: NCI tumour cell line growth inhibition, 48 h
This section presents compounds with their documented TGI values.

Answered examples (5):
{"Compound": "COc1ccc(-c2nc3ccccc3c(=O)[nH]2)cc1", "Target under test": "SF-539 CNS", "Test result": "> 100 µM"}
{"Compound": "O=c1c(I)c[nH]cc1I", "Target under test": "SF-539 CNS", "Test result": "> 100 µM"}
{"Compound": "CCOP1(=O)CC(C)=C(Cl)C(OC)C1 (stereo unspecified)", "Target under test": "SF-539 CNS", "Test result": "> 100 µM"}
{"Compound": "Nc1ncn([C@H]2CC(O)[C@@H](CO)S2)c(=O)n1 (stereo partly specified)", "Target under test": "SF-539 CNS", "Test result": "> 100 µM"}
{"Compound": "Brc1ccc2[nH]c3c(C4=NCCC4)nccc3c2c1", "Target under test": "SF-539 CNS", "Test result": "> 25.4 µM"}

From here, focus on the item given below.
Query :: Return reported TGI; argument: CCOc1ccc(C2=NN(CC)C(=O)C(C3C(=O)N(c4ccccc4)N=C3C)C2)cc1 (stereo unspecified)
Result :: > 100 µM

====

- Tested on: HS 578T breast
- Assay info: NCI tumour cell line growth inhibition, 48 h
This section presents compounds with their documented TGI values.

{"Compound": "O=c1cc(NNc2cccc3ccccc23)[nH]c(=O)[nH]1", "Test result": "68.7 µM"}
{"Compound": "CCN(CC)c1ccc(/C=N/NC(=O)Cc2ccc(Nc3ccnc(C(F)(F)F)c3)cc2)c(O)c1", "Test result": "> 48.9 µM"}
{"Compound": "Cc1nc2c(C)ccc([N+](=O)[O-])c2c(NCCCN(C)C)c1C", "Test result": "> 100 µM"}

Query :: Return reported TGI; argument: `Cc1ccc(C(=O)N/N=C(\N=Nc2ccc([N+](=O)[O-])cc2)c2ccc(N(CCC#N)CCC#N)cc2C)cc1`
Result :: > 100 µM

Query :: Another compound to look at: `Nc1ccc(CC[C@H]2CCC/C=C/[C@@H]3C[C@H](O)C[C@H]3[C@H](O)/C=C/C(=O)O2)cc1`
Result :: > 58.9 µM

Query :: Another compound to look at: `CC1(C)N=C(N)N=C(N)N1c1ccc(CCCC(=O)Nc2ccc(S(=O)(=O)F)cc2)cc1`
Result :: > 100 µM

Query :: Another compound to look at: `O=C(Nc1cccc(-n2ccc3c(NC(=O)c4ccccc4)ncnc32)c1)Nc1ccc(Cl)c(C(F)(F)F)c1`
Result :: 22.6 µM

====

- Test system: RXF 393 renal
- Assay info: NCI tumour cell line growth inhibition, 48 h
Measurement name: TGI

{"Molecule": "COc1ccc(/C=C/C(=O)c2c(-c3ccccc3)nn(C)c(=O)c2N2CC2C)cc1 (configuration not stated)", "TGI": "93.6 µM"}

Query :: Return reported TGI; argument: `COc1cc(/C=C(\C)[N+](=O)[O-])cc(OC)c1`
Result :: 13.1 µM

Query :: Another molecule to look at: `Cc1nc2c(C)ccc([N+](=O)[O-])c2c(NCCCN(C)C)c1C`
Result :: > 100 µM

Query :: Another molecule to look at: `COc1ccc2nc3ccccc3c(NCCNCCO)c2c1`
Result :: 2.34 µM

Query :: Another molecule to look at: `Cc1cc(NC(=O)NCc2ccc(N3C(N)=NC(N)=NC3(C)C)cc2)ccc1S(=O)(=O)F`
Result :: > 100 µM

Query :: Another molecule to look at: C=CCOCC1C2CCC3(OCCO3)C21 (configuration not stated)
Result :: > 100 µM

Query :: Another molecule to look at: COC(=O)/C=C(C)/C=C\COC1CCCCO1 (configuration not stated)
Result :: > 100 µM

Query :: Another molecule to look at: `CC1(C)N=C(C(N)=O)c2[nH]cnc2N1`
Result :: > 100 µM

Query :: Another molecule to look at: `COC(=O)Cc1cc(=O)n2c3ccccc3n(C)c2c1C#N`
Result :: > 100 µM

Query :: Another molecule to look at: O=C1c2cc3c(cc2NC(c2ccccc2F)C1O)OCO3 (configuration not stated)
Result :: > 64.9 µM

Query :: Another molecule to look at: Cc1ccc(S(=O)(=O)N/N=C2\C=CC3(CC2)C(=O)N(I)c2ccccc23)cc1 (configuration not stated)
Result :: 98 µM

Query :: Another molecule to look at: `Cc1ccc(S(=O)(=O)OC[C@@]2(C)CC[C@]3(C)CC[C@]4(C)C(=C3C2)C=C[C@@H]2[C@@]3(C)CCCNC(C)(C)[C@@H]3CC[C@]24C)cc1`
Result :: 2.86 µM

Query :: Another molecule to look at: `CC1(C)CC(O)CC(C)(C)N1O`
Result :: > 100 µM

Query :: Another molecule to look at: `O=C1CCC(c2ccccc2)=NN1c1nc2ccccc2s1`
Result :: 34.1 µM

Query :: Another molecule to look at: `COc1cccc(NC(=O)CC(=O)NN)c1`
Result :: > 100 µM
